- System: Salmonella typhimurium
- method-summary: Antibacterial activity against Salmonella enterica Typhimurium BN10055 after 18 hrs by broth dilution method
- Format: functional, Salmonella enterica subsp. enterica serovar Typhimurium
- applied-conditions: BN10055, 18 h
Residues, ends and D or L forms follow the SMILES beside them. *: point of attachment. βNA = c1ccc2cc(N*)ccc2c1
# strict inequality: MIC < 1000 µM yields Criterion met, everything else yields Criterion not met

The following compounds have reported results that may help.
compound	target-or-test-system	label-class
N=C(N)NCCC[C@H](NC(=O)[C@@H](N)Cc1ccccc1)C(=O)Nc1ccc2ccccc2c1 [PABETAN] (H-Phe-Arg-βNA)	Salmonella typhimurium	Criterion not met
C[C@H]1c2cccc(O)c2C(=O)C2=C(O)[C@]3(O)C(=O)C(C(N)=O)=C(O)[C@@H](N(C)C)[C@@H]3[C@@H](O)[C@@H]21	Salmonella typhimurium	Criterion met
O=C(N[C@H](CO)[C@H](O)c1ccc([N+](=O)[O-])cc1)C(Cl)Cl	Salmonella typhimurium	Criterion not met
CCn1cc(C(=O)O)c(=O)c2ccc(C)nc21	Salmonella typhimurium	Criterion not met

Prompt line: Just wondering, is MIC of `CC[C@H]1OC(=O)[C@H](C)[C@@H](O[C@H]2C[C@@](C)(OC)[C@@H](O)[C@H](C)O2)[C@H](C)[C@@H](O[C@@H]2O[C@H](C)C[C@H](N(C)C)[C@H]2O)[C@](C)(O)C[C@@H](C)C(=O)[C@H](C)[C@@H](O)[C@]1(C)O` below 1000 µM?
Response line: Criterion met

----------
Exercise: state measured MIC for each of the compounds provided.
- Test system: Salmonella typhimurium
- method-summary: Antibacterial activity against Salmonella enterica Typhimurium BN10055 harboring deltaacrB after 18 hrs by broth dilution method
- Assay type: functional, Salmonella enterica subsp. enterica serovar Typhimurium
- applied-conditions: BN10055, 18 h
Residues, ends and D or L forms follow the SMILES beside them. *: point of attachment. βNA = c1ccc2cc(N*)ccc2c1
One number for each entry, in µM.

For orientation, consider the following solved cases.
compound	target-or-test-system	MIC (µM)
N=C(N)NCCC[C@H](NC(=O)[C@@H](N)Cc1ccccc1)C(=O)Nc1ccc2ccccc2c1 [PABETAN] (H-Phe-Arg-βNA)	Salmonella typhimurium	150
CC[C@H]1OC(=O)[C@H](C)[C@@H](O[C@H]2C[C@@](C)(OC)[C@@H](O)[C@H](C)O2)[C@H](C)[C@@H](O[C@@H]2O[C@H](C)C[C@H](N(C)C)[C@H]2O)[C@](C)(O)C[C@@H](C)C(=O)[C@H](C)[C@@H](O)[C@]1(C)O	Salmonella typhimurium	55
O=C(N[C@H](CO)[C@H](O)c1ccc([N+](=O)[O-])cc1)C(Cl)Cl	Salmonella typhimurium	200
CCn1cc(C(=O)O)c(=O)c2ccc(C)nc21	Salmonella typhimurium	275

Turning to the following compound.
Prompt line: Which value of MIC has been reported for `C[C@H]1c2cccc(O)c2C(=O)C2=C(O)[C@]3(O)C(=O)C(C(N)=O)=C(O)[C@@H](N(C)C)[C@@H]3[C@@H](O)[C@@H]21` in the records?
Response line: 4.5
